test: CREB reporter modulators under forskolin, primary screen, cell-based, PC12, CRE-LacZ reporter, forskolin-stimulated (AID 1146); conditions: luminescence, 4.5 h, higher = more signal, called active from +8 up or from −8 down;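 further: PC12 cells with 6xCRE LacZ reporter stimulated by forskolin 10 µM; beta-galactosidase reporter signal reflecting CREB driven transcription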
Classify as follows. Reported z-score greater than or equal to -0.009: YES. Reported z-score below: NO.

>>> classification("CC(C)CON=C1C[C@@H](O)[C@@H](O)[C@@H]2[C@@H]3C(=O)N([C@@H](C)c4ccccc4)C(=O)[C@@H]3CC[C@H]12")
"NO"
>>> classification("CCN(CC)c1ccc(N2CC=CC34O[C@@H]5/C=C\\CCC(C)OC(=O)C5[C@H]3C(=O)N(CCCO)[C@@H]4C2=O)cc1 (stereo partly specified)")
"NO"
>>> classification("COC(=O)[C@H]1COC(c2ccc(OCCCO)cc2)=N1")
"YES"
>>> classification("CC(C)C[C@@H]1NC(=O)[C@H]2C[C@@H](C(=O)NCCCCCCN(C)C)[C@@H](c3cccc(OCCO)c3)N2C1=O")
"NO"
>>> classification("COCCCNC(=O)[C@@]1(CCS(=O)(=O)c2ccccc2)N=C(c2ccc(OCCCO)cc2)O[C@H]1c1ccccc1")
"YES"
>>> classification("COc1ccc([Si](C)(C)[C@@H]2[C@@H](CC(=O)N3CCC[C@H]3CO)O[C@]3(C(=O)N(Cc4cccc(N5CCC5=O)c4)c4ccccc43)[C@H]2C)cc1")
"NO"
>>> classification("C#C[C@@H](CC)O[Si](C#Cc1ccc(Oc2ccccc2)cc1)(C(C)C)C(C)C")
"YES"
>>> classification("CN1C(=O)[C@@]2(CCC(=O)OC(C)(C)C)N=C(c3ccc(OCCCO)cc3)O[C@H]2c2ccccc21")
"NO"
>>> classification("CC(C)[C@@H](OCc1ccccc1)[C@H](C)C=NO[C@H](C)c1cn([C@H](CO)Cc2ccccc2)nn1")
"NO"
>>> classification("CC(CCN1CCc2nc(-c3ccccc3)c(-c3ccccc3)cc2C1)=NO[C@H](C)c1cn([C@@H]2COC[C@H]2O)nn1")
"NO"
>>> classification("COC(=O)[C@@]1(Cc2ccc(F)cc2)[C@@H]2C(=CC(=O)[C@H]2CC(=O)C(=O)N(C)C)CN1C(=O)c1ccccc1")
"NO"
>>> classification("C[C@@H]1C=CCC(=O)OC[C@H](C)C(=O)OC[C@H]2O[C@H]1C=C[C@H]2O")
"YES"
>>> classification("CCOC(=O)NN=C1C[C@@H](O)[C@@H](O)[C@@H]2[C@@H]3C(=O)N(C(C)(C)C)C(=O)[C@@H]3CC[C@@H]12")
"YES"
>>> classification("C#C[C@@H]1Oc2ccccc2S(=O)(=O)N2CCC[C@H]12")
"YES"
>>> classification("O=C1O[C@@H](c2ccccc2)[C@@H](c2ccccc2)N2[C@@H](c3ccc(O)cc3)[C@]3(C(=O)Nc4ccccc43)[C@@H](C(=O)O)[C@H]12")
"YES"
>>> classification("CCCC[C@H]1OB(O)C[C@H]2C1=C(C)C[C@H]1C(=O)N(C)C(=O)[C@H]12")
"YES"
>>> classification("CO[C@@H]1COC(=O)CC=C[C@@H](C)[C@@H]2C=C[C@@H](O)[C@@H](COC(=O)CC=C[C@H]1C)O2")
"YES"
>>> classification("Cc1ccc(C2CC=C(C(=O)O)CN2S(=O)(=O)c2ccc(C)cc2)cc1 (stereo unspecified)")
"YES"
>>> classification("COC(=O)CC1OC1[C@H](C)[C@@H](OC)C(C)C (stereo partly specified)")
"NO"
>>> classification("CCOC(=O)C1=CC[C@H]2C(=O)N(CC)C(=O)[C@@H]12")
"YES"
>>> classification("CC(C)=NOCc1cccc(-c2cc(-c3ccccc3)no2)c1")
"YES"
>>> classification("CCOC(=O)[C@H](Cc1ccccc1)NC(=O)CCC1CC(OC(=O)NCc2ccc3c(c2)OCO3)CC2(CCCC(COC(=O)NCc3ccccc3)O2)O1 (stereo partly specified)")
"YES"
>>> classification("CC(C)CON=C1C[C@@H](O)[C@@H](O)[C@@H]2[C@@H]3C(=O)N(C[C@@H]4CCCO4)C(=O)[C@@H]3CC[C@H]12")
"NO"
>>> classification("O=C1[C@H]2[C@H]3[C@H](O)[C@H](O)CC(=NO[C@@H]4O[C@H](CO)[C@@H](O)[C@H](O)[C@H]4O)[C@H]3CC[C@H]2C(=O)N1Cc1ccccc1")
"NO"
>>> classification("CC(C)NC(=O)[C@@H]1c2ccccc2C(=O)N(CC23CC4CC(CC(C4)C2)C3)[C@H]1c1ccc(CO)cc1")
"NO"
>>> classification("CO[C@H]1COC(=O)[C@H](C)COC(=O)CC=C[C@@H](C)[C@H](OC)COC(=O)CC=C[C@@H]1C")
"YES"

// data source = PubChem BioAssay
